Recorded measurements of Ki, one per entry
Molecular target: DOR (Rattus norvegicus, UniProt P33533)
Construct: from tissue
Sequence (P33533 whole entry): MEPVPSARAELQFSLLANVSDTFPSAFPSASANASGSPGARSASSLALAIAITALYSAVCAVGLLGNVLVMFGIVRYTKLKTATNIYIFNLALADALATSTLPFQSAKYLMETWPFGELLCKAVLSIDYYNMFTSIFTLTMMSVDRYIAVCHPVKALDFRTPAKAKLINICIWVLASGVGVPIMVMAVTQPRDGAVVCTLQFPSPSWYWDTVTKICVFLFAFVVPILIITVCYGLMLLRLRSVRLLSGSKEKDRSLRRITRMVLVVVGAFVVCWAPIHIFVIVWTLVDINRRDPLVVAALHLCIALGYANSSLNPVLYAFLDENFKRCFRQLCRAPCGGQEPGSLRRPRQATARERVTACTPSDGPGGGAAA
Test: Opioid receptor binding, DOR, rat brain membranes
Details: Binding Ki DOR, Table 2-6, rat brain membranes
# output: bare number, implied unit nM

{"Chemical Smiles": "CO[C@@]12CC[C@@H](N[C@@H](CC(C)C)C(=O)O)[C@@H]3Oc4c(O)ccc5c4[C@@]31CCN(CC1CC1)[C@@H]2C5", "Attribute Measured": "Ki", "Data Value": 1.13}
{"Chemical Smiles": "CO[C@@]12CC[C@H](NCCCC(=O)O)[C@@H]3Oc4c(O)ccc5c4[C@@]31CCN(CC1CC1)[C@@H]2C5", "Attribute Measured": "Ki", "Data Value": 10.7}

Which Ki value is on record for CO[C@@]12CC[C@H](N[C@@H](Cc3ccccc3)C(=O)OC(C)(C)C)[C@@H]3Oc4c(O)ccc5c4[C@@]31CCN(CC1CC1)[C@@H]2C5 ?
0.58
